- EXPERIMENTAL_TARGET: CYP2C9 (Homo sapiens, UniProt P11712)
- Sequence (P11712 whole entry): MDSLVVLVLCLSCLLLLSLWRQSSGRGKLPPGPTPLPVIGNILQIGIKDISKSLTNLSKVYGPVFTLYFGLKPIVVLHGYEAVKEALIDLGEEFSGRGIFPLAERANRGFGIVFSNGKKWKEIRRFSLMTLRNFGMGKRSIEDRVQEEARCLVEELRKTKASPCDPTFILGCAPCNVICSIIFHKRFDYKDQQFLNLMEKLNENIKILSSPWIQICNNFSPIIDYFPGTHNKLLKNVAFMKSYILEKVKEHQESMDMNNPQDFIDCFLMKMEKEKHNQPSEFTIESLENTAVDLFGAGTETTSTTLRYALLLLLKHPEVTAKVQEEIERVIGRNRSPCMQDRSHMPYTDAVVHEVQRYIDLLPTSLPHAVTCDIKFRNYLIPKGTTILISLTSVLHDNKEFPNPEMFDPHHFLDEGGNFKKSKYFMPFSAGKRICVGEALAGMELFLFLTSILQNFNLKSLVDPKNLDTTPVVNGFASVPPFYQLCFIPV
METRIC_NAME: IC50

Exercise: # value lookup — system CYP2C9 (Homo sapiens, UniProt P11712), readout IC50, item CC1(c2cc(NC(=O)c3ncc(F)cc3F)ccc2F)Cc2ccncc2C(N)=N1 (stereo not shown) [Compound I-2]
Solution: > 20 µM

----------
- EXPERIMENTAL_TARGET: CYP1A2 (Homo sapiens, UniProt P05177)
- Sequence (P05177 whole entry): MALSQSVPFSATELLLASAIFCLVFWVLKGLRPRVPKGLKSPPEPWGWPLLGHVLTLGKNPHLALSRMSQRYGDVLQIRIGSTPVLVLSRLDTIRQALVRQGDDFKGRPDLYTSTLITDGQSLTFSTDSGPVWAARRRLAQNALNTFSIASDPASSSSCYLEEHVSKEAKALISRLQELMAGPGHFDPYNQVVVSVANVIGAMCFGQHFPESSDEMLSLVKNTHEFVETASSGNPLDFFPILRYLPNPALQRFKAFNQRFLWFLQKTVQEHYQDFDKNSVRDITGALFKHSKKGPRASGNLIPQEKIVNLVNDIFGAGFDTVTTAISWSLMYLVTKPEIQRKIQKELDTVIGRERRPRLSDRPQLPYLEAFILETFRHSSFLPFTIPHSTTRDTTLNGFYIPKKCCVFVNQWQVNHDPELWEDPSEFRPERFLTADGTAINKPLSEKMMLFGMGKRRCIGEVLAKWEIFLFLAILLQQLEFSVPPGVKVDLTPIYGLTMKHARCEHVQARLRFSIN
METRIC_NAME: IC50

Exercise: # value lookup — system CYP1A2 (Homo sapiens, UniProt P05177), readout IC50, item CC1(c2cc(NC(=O)c3ncc(F)cc3F)ccc2F)Cc2ccncc2C(N)=N1 (stereo not shown)
Solution: > 20 µM

----------
- MEASUREMENT_PROTOCOL: Solubility test (turbidity, JP-I, JP-II)
- Type: physicochemical
- CONDITION: JP-I medium, pH 1.2, simulated gastric fluid, kinetic from dmso stock; JP-I, turbidity after 4 hours, 2% DMSO
METRIC_NAME: solubility at 4 h

Exercise: Reported solubility at 4 h, molecule CC1(c2cc(NC(=O)c3ccc(C#N)cn3)ccc2F)Cc2c(F)cncc2C(N)=N1 (stereo not shown) : ____
Solution: > 40 µM

----------
- EXPERIMENTAL_TARGET: Recombinant human BACE1 (Homo sapiens, UniProt P56817)
- Sequence (P56817 46-501): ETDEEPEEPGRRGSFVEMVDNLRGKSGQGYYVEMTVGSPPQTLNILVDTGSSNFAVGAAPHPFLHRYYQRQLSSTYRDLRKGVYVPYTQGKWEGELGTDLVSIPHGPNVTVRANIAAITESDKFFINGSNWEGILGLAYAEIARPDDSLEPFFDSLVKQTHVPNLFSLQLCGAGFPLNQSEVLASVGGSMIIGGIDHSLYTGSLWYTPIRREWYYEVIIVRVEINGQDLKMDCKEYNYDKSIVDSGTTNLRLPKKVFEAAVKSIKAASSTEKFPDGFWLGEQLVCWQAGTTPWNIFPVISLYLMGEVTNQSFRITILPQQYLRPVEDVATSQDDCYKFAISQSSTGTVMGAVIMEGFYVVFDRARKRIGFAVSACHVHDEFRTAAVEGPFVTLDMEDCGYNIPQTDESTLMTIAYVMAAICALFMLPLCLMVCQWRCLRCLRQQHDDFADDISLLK
- MEASUREMENT_PROTOCOL: Assay of BACE1 inhibitory activity
- CONDITION: Recombinant human BACE1, 30° C., 3 hours, pH 5.0; read-out: IC50 (50% inhibitory concentration against the enzymatic activity)
pIC50: −log10 of the molar value.
METRIC_NAME: pIC50

Exercise: Reported pIC50, molecule CC1(c2cc(NC(=O)c3ccc(C#N)cn3)ccc2F)Cc2c(F)cncc2C(N)=N1 (centres unmarked) [Compound I-9] : ____
Solution: ≥ 6.00

----------
- EXPERIMENTAL_TARGET: Recombinant human BACE1 (Homo sapiens, UniProt P56817)
- Construct: purchased R&D Systems
- MEASUREMENT_PROTOCOL: Assay of BACE1 inhibitory activity
- Format: biochemical
- CONDITION: Recombinant human BACE1, 30° C., 3 hours, pH 5.0; read-out: IC50 (50% inhibitory concentration against the enzymatic activity)
Reported IC50 values for the following compounds.

Consider the reported IC50 for these compounds:
Exercise: Reported IC50, compound CC1(c2cc(NC(=O)c3ccc(Cl)cn3)ccc2F)Cc2cnccc2C(N)=N1 (stereo not shown) : ____
Solution: ≤ 1000 nM

Exercise: Reported IC50, compound CCCCC#CC(=O)Nc1ccc(F)c(C2(C)Cc3cnccc3C(N)=N2)c1 (stereo not shown) : ____
Solution: ≤ 3000 nM

Exercise: Reported IC50, compound CC1(c2cc(NC(=O)c3ccc(C#N)cn3)ccc2F)Cc2ncccc2C(N)=N1 (stereo not shown) : ____
Solution: 54 nM

Exercise: Reported IC50, compound CC1(c2cc(NC(=O)c3ccc(C#N)cn3)ccc2F)Cc2c(ccnc2F)C(N)=N1 (stereo not shown) : ____
Solution: ≤ 1000 nM

Exercise: Reported IC50, compound CCC#CC(=O)Nc1ccc(F)c(C2(C)Cc3cnccc3C(N)=N2)c1 (stereo not shown) : ____
Solution: ≤ 1000 nM

Exercise: Reported IC50, compound Cc1cnc(C(=O)Nc2ccc(F)c(C3(C)Cc4ccncc4C(N)=N3)c2)cn1 (stereo not shown) : ____
Solution: ≤ 1000 nM

---
Exercise: Reported IC50, compound CC1(c2cc(NC(=O)c3ncc(F)cc3F)ccc2F)Cc2ccncc2C(N)=N1 (stereo not shown) : ____
Solution: ≤ 1000 nM
